- Tested on: TLR2 induced IL-6 in peripheral blood mononuclear cells (PBMCs)
- PROTOCOL NOTES: PBMC TLR2 Induced IL-6 Assay
- Format: cell-based, human
- EXPERIMENTAL CONTEXT: Homo sapiens, PBMC, PBMC TLR2 Induced IL-6 Assay; lipoteichoic acid stimulation, IL-6 by ELISA; read-out: Cell IC50
Hi! Could you tag entries with IC50 below 100 nM as t, and those at or above as f? Much appreciated.

STRUCTURE STRING	CATEGORY
COCCn1cc(Nc2cc(-n3cnc4cc(Cl)cnc43)ncc2C(=O)NC[C@@H](F)C(C)(C)O)cn1	f
CC(C)(O)[C@H](F)CNC(=O)c1cnc(-n2ncc3cc(Cl)cnc32)cc1Nc1cnn(CC(F)(F)F)c1	f
CC(C)Nc1cc(-n2ccc3cc(C#N)cnc32)ncc1C(=O)NC[C@@H](F)C(C)(C)O	t

Determine if CC(C)(O)[C@H](F)CNC(=O)c1cnc(-n2ncc3cc(C#N)cnc32)cc1Nc1cnn(CC(F)(F)F)c1 shows IC50 strictly lower than 100 nM.
t

Quick check: does CC(C)(O)[C@H](F)CNC(=O)c1cnc(-n2cnc3cc(C#N)cnc32)cc1NC1CCOCC1 have IC50 under 100 nM?
f

Does the reported IC50 of the following compound sit strictly below 100 nM? CC(C)Nc1cc(-n2ncc3cc(C(F)F)cnc32)ncc1C(=O)NC[C@@H](F)C(C)(C)O
f

Determine if CC(C)Nc1cc(-n2ncc3cc(C#N)cnc32)ncc1C(=O)Nc1cnn(C2COC2)c1 shows IC50 strictly lower than 100 nM.
f

###

- EXPERIMENTAL SYSTEM: IRAK4 (Homo sapiens (Human), UniProt Q9NWZ3)
- Sequence (Q9NWZ3 whole entry, species assumed): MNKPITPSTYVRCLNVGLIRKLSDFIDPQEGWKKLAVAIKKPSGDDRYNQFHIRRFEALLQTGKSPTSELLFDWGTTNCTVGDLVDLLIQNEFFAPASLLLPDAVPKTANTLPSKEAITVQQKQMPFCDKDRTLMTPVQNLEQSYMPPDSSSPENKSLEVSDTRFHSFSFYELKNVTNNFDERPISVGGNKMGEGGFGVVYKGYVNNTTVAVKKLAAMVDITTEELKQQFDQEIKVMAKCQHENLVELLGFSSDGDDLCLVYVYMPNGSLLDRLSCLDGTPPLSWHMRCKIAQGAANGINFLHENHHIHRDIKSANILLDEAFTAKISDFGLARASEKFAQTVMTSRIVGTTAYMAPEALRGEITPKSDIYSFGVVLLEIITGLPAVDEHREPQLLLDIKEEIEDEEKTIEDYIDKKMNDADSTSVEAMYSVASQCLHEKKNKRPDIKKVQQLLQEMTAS
- PROTOCOL NOTES: IRAK4 Inhibition Assay
- Format: biochemical
- EXPERIMENTAL CONTEXT: IRAK4 Inhibition Assay; ATP 500 μM; read-out: IRAK4 IC50
# IC50 listing for each entry below
Kindly provide the numeric value in nM only, without the unit symbol.

// worked examples, IC50 included
MOLECULE	IC50 (nM)
CC(C)Nc1cc(-n2ncc3cc(C#N)cnc32)ncc1C(=O)NC[C@H](F)C(C)(C)O [Example 196]	10.4
CC(C)Nc1cc(-n2ncc3cc(C#N)cnc32)ncc1C(=O)N[C@H]1CC[C@H](S(C)(=O)=O)CC1 [Example 161]	6.8
CC(C)(O)[C@H](F)CNC(=O)c1cnc(-n2ccc3cncnc32)cc1NC1CCOCC1 [Example 40]	2
CC(C)Nc1cc(-n2ncc3cc(C#N)cnc32)ncc1C(=O)NCCC(C)(C)NS(C)(=O)=O [Example 306]	4.8
CNC(=O)[C@H]1CC[C@H](NC(=O)c2cnc(-n3ccc4cncnc43)cc2NC2CCOCC2)CC1 [Example 82]	4.4

What value of IC50 has been reported for the following molecule? CC(C)Nc1cc(-n2ccc3cc(C#N)cnc32)ncc1C(=O)N[C@H]1CC[C@H](C(=O)NC2CC2)CC1 [Example 91]
2

Which value of IC50 has been reported for C[C@H](CF)Nc1cc(-n2ccc3cc(C#N)cnc32)ncc1C(=O)NCCC(C)(C)O [Example 120] in the records?
5.1

GET /values?readout=IC50&item= CC(C)Nc1cc(-n2ccc3cc(F)cnc32)ncc1C(=O)NC[C@@H](F)C(C)(C)O [Example 38]
1.6

Which measured IC50 value corresponds to CC(=O)Nc1cccc(Nc2cc(-n3ccc4cc(C#N)cnc43)ncc2C(=O)NC[C@@H](F)C(C)(C)O)c1 [Example 54] ?
1.8

Dear colleague, I am looking for the recorded IC50 of the following molecule: CC(C)Nc1cc(-n2cnc3cc(Cl)cnc32)ncc1C(=O)NC[C@@H](F)C(C)(C)O [Example 339]
4

For the molecule CC(C)Nc1cc(-n2ncc3cc(C#N)cnc32)ncc1C(=O)NCCNS(C)(=O)=O [Example 219] , what IC50 is on record?
14.9

Given CC(C)(F)[C@H](F)CNC(=O)c1cnc(-n2cnc3cc(C#N)cnc32)cc1NC1COC1 [Example 344] , state its recorded IC50.
13.5

Reported IC50 for CC(C)Nc1cc(-n2ncc3cc(C#N)cnc32)ncc1C(=O)NC[C@@H](F)C(O)C(C)C (single isomer, unassigned) [Example 232] : what is it?
2.3

State the recorded IC50 for this entry: CC(C)(O)[C@H](F)CNC(=O)c1cnc(-n2ccc3cc(C#N)cnc32)cc1Nc1cccc(NS(C)(=O)=O)c1 [Example 57]
1.5

Param item = CC(C)(O)[C@H](F)CNC(=O)c1cnc(-n2ncc3cc(Cl)cnc32)cc1Nc1cnn(CC(F)F)c1 [Example 351] ; retrieve measured IC50.
2.3

###

- Tested on: TLR2 induced IL-6 in peripheral blood mononuclear cells (PBMCs)
- PROTOCOL NOTES: PBMC TLR2 Induced IL-6 Assay
- Assay type: cell-based, human
- EXPERIMENTAL CONTEXT: Homo sapiens, PBMC, PBMC TLR2 Induced IL-6 Assay; lipoteichoic acid stimulation, IL-6 by ELISA; read-out: Cell IC50
- Method: PBMC TLR2 Induced IL-6 Assay Peripheral blood mononuclear cells (PBMCs) were isolated from human blood containing the anti-coagulant EDTA (2.5 mM) by centrifugation over a FICOLL® gradient. PBMCs (250000 cells/well) were cultured in assay media (RPMI with 10% heat inactivated FCS) with compounds for 30 minutes at 37° C. in a 5% CO2 incubator. Following pretreatment with compounds, cells were stimulated for 5 hours with 10 µg/ml lipoteichoic acid (Invivogen, San Diego, Calif.), a TLR2 agonist. […]
MEASUREMENT NAME: pIC50
Keep it numeric: pIC50 is minus log10 of the concentration in mol/L.

Worked cases, answers included:
STRUCTURE STRING	EXPERIMENTAL SYSTEM	pIC50
CC(C)Nc1cc(-n2ncc3cc(C#N)cnc32)ncc1C(=O)NCCNS(C)(=O)=O	TLR2 induced IL-6 in peripheral blood mononuclear cells (PBMCs)	6.17
CC(C)(O)[C@H](F)CNC(=O)c1cnc(-n2ccc3cc(C#N)cnc32)cc1NC1CCOCC1	TLR2 induced IL-6 in peripheral blood mononuclear cells (PBMCs)	7.32
COc1ccc(CCNC(=O)c2cnc(-n3ncc4cc(C#N)cnc43)cc2NC(C)C)cc1	TLR2 induced IL-6 in peripheral blood mononuclear cells (PBMCs)	6.81

I am curious: what pIC50 value has been reported for CC1(Nc2cc(-n3ncc4cc(C#N)cnc43)ncc2C(=O)NC[C@@H](F)C(C)(C)O)CC1 ?
6.34

###

- Tested on: TLR2 induced IL-6 in peripheral blood mononuclear cells (PBMCs)
- PROTOCOL NOTES: PBMC TLR2 Induced IL-6 Assay
- Type: cell-based, human
- EXPERIMENTAL CONTEXT: Homo sapiens, PBMC, PBMC TLR2 Induced IL-6 Assay; lipoteichoic acid stimulation, IL-6 by ELISA; read-out: Cell IC50
Known IC50 of a selection of molecules
Could you give me the number in nM? Just the number is fine.

// IC50 lookup, key: CC(=O)N[C@H]1CC[C@H](NC(=O)c2cnc(-n3ncc4cc(C#N)c(N)nc43)cc2NC(C)C)CC1
172

Need IC50, item CC(Nc1cc(-n2ncc3cc(C#N)cnc32)ncc1C(=O)NC[C@@H](F)C(C)(C)O)C(F)(F)F (stereo partly drawn)
219

Could you tell me which IC50 is on file for CC(C)(O)[C@H](F)CNC(=O)c1cnc(-n2ncc3cc(Cl)cnc32)cc1Nc1cnn(CCCF)c1 ?
41

###

- EXPERIMENTAL SYSTEM: IRAK4 (Homo sapiens (Human))
- PROTOCOL NOTES: IRAK4 Inhibition Assay
- Type: biochemical
- EXPERIMENTAL CONTEXT: IRAK4 Inhibition Assay; ATP 500 μM; read-out: IRAK4 IC50
MEASUREMENT NAME: pIC50
Note on pIC50: it is the negative log10 of concentration, concentration in mol/L.

Field: example entries. Status: answers known.
COMPOUND	pIC50
CC(C)Nc1cc(-n2ccc3cc(C#N)cnc32)ncc1C(=O)NC1CCc2nc(N)sc2C1 (stereo not drawn)	7.88
COC1CCC(NC(=O)c2cnc(-n3ncc4cc(C#N)cnc43)cc2NC(C)C)CC1 (stereo not drawn)	8.47
CC(C)(O)[C@H](F)CNC(=O)c1cnc(-n2ccc3cc(C#N)cnc32)cc1Nc1cnn(CC(F)(F)F)c1	8.68
CC(C)Nc1cc(-n2ncc3cc(C#N)cnc32)ncc1C(=O)NCCc1ccc(N(S(C)(=O)=O)S(C)(=O)=O)cc1	8.44
CC(C)Nc1cc(-n2ncc3cc(C#N)cnc32)ncc1C(=O)NCCC1(O)CC1	8.21
CC(C)Nc1cc(-n2ncc3cc(C#N)cnc32)ncc1C(=O)NC[C@@H](F)C(O)(C1CC1)C1CC1	7.97
CC(C)Nc1cc(-n2ncc3cc(Cl)cnc32)ncc1C(=O)NCCN1CCOCC1	7.92
CC(C)(O)[C@H](F)CNC(=O)c1cnc(-n2ncc3cc(C#N)cnc32)cc1Nc1cnn(CC(F)(F)F)c1	8.77
CC(F)Cn1cc(Nc2cc(-n3cnc4cc(C#N)cnc43)ncc2C(=O)NC[C@@H](F)C(C)(C)O)cn1 (mixture of isomers)	8.59
CC(=O)N[C@H]1CC[C@H](NC(=O)c2cnc(-n3ncc4cc(C#N)cnc43)cc2NC(C)C)CC1	8.46

Fill in the blank: the reported pIC50 of CC(C)(O)[C@H](F)CNC(=O)c1cnc(-n2ccc3cc(Cl)cnc32)cc1NC1CCC1 is ____.
8.47

Return reported pIC50; argument: CC(C)Nc1cc(-n2ncc3cc(C#N)cnc32)ncc1C(=O)NCCC1CCCCO1 (stereo not drawn)
8.19

Bench note: what pIC50 did CC(C)Nc1cc(-n2ncc3cc(C#N)cnc32)ncc1C(=O)NCCC1(O)CCOCC1 show?
8.21

Consider the compound shown here: CC(C)Nc1cc(-n2ncc3cc(C#N)cnc32)ncc1C(=O)Nc1cnn(CC(C)(C)O)c1 What is its recorded pIC50?
7.97
